- assay.summary: Intranasal triptans with alkylsaccharide in rats, plasma levels by HPLC
- Type: in vivo
- particulars: Naratriptan 0.22 mg/kg intranasal; alkylsaccharide 0.5%
test.readout: Ratio Cmax(alkylsacch)/Cmax(No alkylsacch)

Worked examples, 4 compounds total:
compound	result
CCCCCCCCCCO[C@@H]1O[C@H](CO)[C@@H](O[C@H]2O[C@H](CO)[C@@H](O)[C@H](O)[C@H]2O)[C@H](O)[C@H]1O [decyl maltoside, decyl-β-D-maltoside]	≧1.5
CCCCCCCCCCCCCCO[C@@H]1O[C@H](CO)[C@@H](O[C@H]2O[C@H](CO)[C@@H](O)[C@H](O)[C@H]2O)[C@H](O)[C@H]1O [tetradecyl maltoside]	≧1.5
CCCCCCCCCCCCCO[C@@H]1O[C@H](CO)[C@@H](O[C@H]2O[C@H](CO)[C@@H](O)[C@H](O)[C@H]2O)[C@H](O)[C@H]1O [tridecyl maltoside, tridecyl-β-D-maltoside]	≧1.5
CCCCCCCCCCCCO[C@@H]1O[C@H](CO)[C@@H](O[C@H]2O[C@H](CO)[C@@H](O)[C@H](O)[C@H]2O)[C@H](O)[C@H]1O [dodecyl maltoside]	≧1.5

Ratio Cmax(alkylsacch)/Cmax(No alkylsacch) reading for CCCCCCCCO[C@@H]1O[C@H](CO)[C@@H](O[C@H]2O[C@H](CO)[C@@H](O)[C@H](O)[C@H]2O)[C@H](O)[C@H]1O [octyl maltoside, Octyl-β-D-maltoside] : ≦1.5

* * *

- assay.summary: Intranasal triptans with alkylsaccharide in rats, plasma levels by HPLC
- Type: in vivo
- particulars: Naratriptan 0.22 mg/kg intranasal; alkylsaccharide 0.05%
test.readout: Ratio Cmax(alkylsacch)/Cmax(No alkylsacch)

Worked examples, 4 compounds total:
compound	result
CCCCCCCCCCCCCO[C@@H]1O[C@H](CO)[C@@H](O[C@H]2O[C@H](CO)[C@@H](O)[C@H](O)[C@H]2O)[C@H](O)[C@H]1O [tridecyl maltoside, tridecyl-β-D-maltoside]	≧1.5
CCCCCCCCO[C@@H]1O[C@H](CO)[C@@H](O[C@H]2O[C@H](CO)[C@@H](O)[C@H](O)[C@H]2O)[C@H](O)[C@H]1O [octyl maltoside, Octyl-β-D-maltoside]	≦1.5
CCCCCCCCCCO[C@@H]1O[C@H](CO)[C@@H](O[C@H]2O[C@H](CO)[C@@H](O)[C@H](O)[C@H]2O)[C@H](O)[C@H]1O [decyl maltoside, decyl-β-D-maltoside]	≦1.5
CCCCCCCCCCCCCCO[C@@H]1O[C@H](CO)[C@@H](O[C@H]2O[C@H](CO)[C@@H](O)[C@H](O)[C@H]2O)[C@H](O)[C@H]1O [tetradecyl maltoside]	≧1.5

# context switch: different compound, same Ratio Cmax(alkylsacch)/Cmax(No alkylsacch)
Ratio Cmax(alkylsacch)/Cmax(No alkylsacch) reading for CCCCCCCCCCCCO[C@@H]1O[C@H](CO)[C@@H](O[C@H]2O[C@H](CO)[C@@H](O)[C@H](O)[C@H]2O)[C@H](O)[C@H]1O [dodecyl maltoside] : ≧1.5

* * *

- assay.summary: Intranasal triptans with alkylsaccharide in rats, plasma levels by HPLC
- Assay type: in vivo
- particulars: Sumatriptan 6.2 mg/kg intranasal; alkylsaccharide 0.02%
test.readout: Tmax

Worked examples, 4 compounds total:
compound	Tmax
CCCCCCCCCCCCO[C@@H]1O[C@H](CO)[C@@H](O[C@H]2O[C@H](CO)[C@@H](O)[C@H](O)[C@H]2O)[C@H](O)[C@H]1O [dodecyl maltoside]	~1 to 2 h
CCCCCCCCCCO[C@@H]1O[C@H](CO)[C@@H](O[C@H]2O[C@H](CO)[C@@H](O)[C@H](O)[C@H]2O)[C@H](O)[C@H]1O [decyl maltoside, decyl-β-D-maltoside]	~1 to 2 h
CCCCCCCCCCCCCCO[C@@H]1O[C@H](CO)[C@@H](O[C@H]2O[C@H](CO)[C@@H](O)[C@H](O)[C@H]2O)[C@H](O)[C@H]1O [tetradecyl maltoside]	~1 h
CCCCCCCCO[C@@H]1O[C@H](CO)[C@@H](O[C@H]2O[C@H](CO)[C@@H](O)[C@H](O)[C@H]2O)[C@H](O)[C@H]1O [octyl maltoside, Octyl-β-D-maltoside]	~1 to 2 h

# context switch: different compound, same Tmax
Tmax reading for CCCCCCCCCCCCCO[C@@H]1O[C@H](CO)[C@@H](O[C@H]2O[C@H](CO)[C@@H](O)[C@H](O)[C@H]2O)[C@H](O)[C@H]1O [tridecyl maltoside, tridecyl-β-D-maltoside] : ~1 h

* * *

- assay.summary: Intranasal triptans with alkylsaccharide in rats, plasma levels by HPLC
- Assay type: in vivo
- particulars: Sumatriptan 6.2 mg/kg intranasal; alkylsaccharide 0.5%
test.readout: Tmax

compound	Tmax
CCCCCCCCO[C@@H]1O[C@H](CO)[C@@H](O[C@H]2O[C@H](CO)[C@@H](O)[C@H](O)[C@H]2O)[C@H](O)[C@H]1O [octyl maltoside, Octyl-β-D-maltoside]	~60 to 120 min
CCCCCCCCCCCCCO[C@@H]1O[C@H](CO)[C@@H](O[C@H]2O[C@H](CO)[C@@H](O)[C@H](O)[C@H]2O)[C@H](O)[C@H]1O [tridecyl maltoside, tridecyl-β-D-maltoside]	~5 to 15 min
CCCCCCCCCCO[C@@H]1O[C@H](CO)[C@@H](O[C@H]2O[C@H](CO)[C@@H](O)[C@H](O)[C@H]2O)[C@H](O)[C@H]1O [decyl maltoside, decyl-β-D-maltoside]	~5 to 15 min
CCCCCCCCCCCCCCO[C@@H]1O[C@H](CO)[C@@H](O[C@H]2O[C@H](CO)[C@@H](O)[C@H](O)[C@H]2O)[C@H](O)[C@H]1O [tetradecyl maltoside]	~5 to 15 min

# context switch: different compound, same Tmax
Tmax reading for CCCCCCCCCCCCO[C@@H]1O[C@H](CO)[C@@H](O[C@H]2O[C@H](CO)[C@@H](O)[C@H](O)[C@H]2O)[C@H](O)[C@H]1O [dodecyl maltoside] : ~5 to 15 min

* * *

- assay.summary: Intranasal triptans with alkylsaccharide in rats, plasma levels by HPLC
- Format: in vivo
- particulars: Sumatriptan 6.2 mg/kg intranasal; alkylsaccharide 2%
test.readout: Tmax

Tmax reading for CCCCCCCCCCO[C@@H]1O[C@H](CO)[C@@H](O[C@H]2O[C@H](CO)[C@@H](O)[C@H](O)[C@H]2O)[C@H](O)[C@H]1O [decyl maltoside, decyl-β-D-maltoside] : ~5 to 15 min

Tmax reading for CCCCCCCCCCCCO[C@@H]1O[C@H](CO)[C@@H](O[C@H]2O[C@H](CO)[C@@H](O)[C@H](O)[C@H]2O)[C@H](O)[C@H]1O [dodecyl maltoside] : ~5 to 15 min

Tmax reading for CCCCCCCCO[C@@H]1O[C@H](CO)[C@@H](O[C@H]2O[C@H](CO)[C@@H](O)[C@H](O)[C@H]2O)[C@H](O)[C@H]1O [octyl maltoside, Octyl-β-D-maltoside] : ~60 to 120 min

Tmax reading for CCCCCCCCCCCCCO[C@@H]1O[C@H](CO)[C@@H](O[C@H]2O[C@H](CO)[C@@H](O)[C@H](O)[C@H]2O)[C@H](O)[C@H]1O [tridecyl maltoside, tridecyl-β-D-maltoside] : ~5 to 15 min

Tmax reading for CCCCCCCCCCCCCCO[C@@H]1O[C@H](CO)[C@@H](O[C@H]2O[C@H](CO)[C@@H](O)[C@H](O)[C@H]2O)[C@H](O)[C@H]1O [tetradecyl maltoside] : ~5 to 15 min

* * *

Entries annotated with measured Tmax
- assay.summary: Intranasal triptans with alkylsaccharide in rats, plasma levels by HPLC;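 note: rats in groups of eight given 20 µL into one nostril, dose expressed as triptan free base, Cmax and Tmax read from plasma concentration–time curves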
- Format: in vivo
- particulars: Naratriptan 0.22 mg/kg intranasal; alkylsaccharide 0.05%

Worked examples, 4 compounds total:
compound	Tmax
CCCCCCCCCCO[C@@H]1O[C@H](CO)[C@@H](O[C@H]2O[C@H](CO)[C@@H](O)[C@H](O)[C@H]2O)[C@H](O)[C@H]1O [decyl maltoside, decyl-β-D-maltoside]	~60 to 120 min
CCCCCCCCCCCCO[C@@H]1O[C@H](CO)[C@@H](O[C@H]2O[C@H](CO)[C@@H](O)[C@H](O)[C@H]2O)[C@H](O)[C@H]1O [dodecyl maltoside]	~5 to 15 min
CCCCCCCCO[C@@H]1O[C@H](CO)[C@@H](O[C@H]2O[C@H](CO)[C@@H](O)[C@H](O)[C@H]2O)[C@H](O)[C@H]1O [octyl maltoside, Octyl-β-D-maltoside]	~60 to 120 min
CCCCCCCCCCCCCO[C@@H]1O[C@H](CO)[C@@H](O[C@H]2O[C@H](CO)[C@@H](O)[C@H](O)[C@H]2O)[C@H](O)[C@H]1O [tridecyl maltoside, tridecyl-β-D-maltoside]	~5 to 15 min

# context switch: different compound, same Tmax
Tmax reading for CCCCCCCCCCCCCCO[C@@H]1O[C@H](CO)[C@@H](O[C@H]2O[C@H](CO)[C@@H](O)[C@H](O)[C@H]2O)[C@H](O)[C@H]1O [tetradecyl maltoside] : ~5 to 15 min
